Target: human liver glycogen phosphorylase (Homo sapiens, UniProt P06737)
Test: Liver glycogen phosphorylase activity, forward reaction system (NADPH detection at 340 nm)
Conditions: enzyme inhibitory activity against recombinant human liver glycogen phosphorylase (Sf9 cell lysate), room temperature, 75 minutes
Protocol: The glycogen phosphorylase activity was determined by a method using a forward reaction system. The following method was used to determine the glycogen phosphorylase activity using a forward reaction system. […] At this time, NADPH generated from NADP in the dehydrogenation reaction by G6PDH was detected. […]
pIC50: −log10 of the molar value.
Parameter: pIC50. Scope: all listed entries.

>>> measured("Cc1ncc(CNC(=O)c2cc(NC(=O)c3cc(F)c(F)cc3Cl)[nH]n2)c(-c2oc(C)nc2C)n1")
"> 7.00"

// pIC50 lookup, compound = Cc1nc(CNC(=O)c2cc(NC(=O)c3cc(F)c(F)cc3Cl)[nH]n2)oc1C(=O)O , result: > 7.00

Lookup result for Cc1onc(-c2ccccc2F)c1CNC(=O)c1cc(NC(=O)c2cc(F)c(F)cc2Cl)[nH]n1 ; measured pIC50: 6.52 to 7.00

pIC50 in this record for CCOC(=O)c1nc(C)c(CNC(=O)c2cc(NC(=O)c3cc(F)c(F)cc3Cl)[nH]n2)s1 : > 7.00

Reported pIC50 of Cc1nc(COCC(F)(F)F)oc1CNC(=O)c1cc(NC(=O)c2cc(F)c(F)cc2Cl)[nH]n1 : > 7.00

# compound COc1cccc(-c2nnc(CNC(=O)c3cc(NC(=O)c4cc(F)c(F)cc4Cl)[nH]n3)o2)c1 ; its pIC50 = > 7.00

The recorded pIC50 for Cc1nc(COC(c2ccccc2)(c2ccccc2)c2ccccc2)oc1CNC(=O)c1cc(NC(=O)c2cc(F)c(F)cc2Cl)[nH]n1 is < 6.52

----------
Target: human liver glycogen phosphorylase (Homo sapiens, UniProt P06737)
Assay: Liver glycogen phosphorylase activity, forward reaction system (NADPH detection at 340 nm)
Conditions: enzyme inhibitory activity against recombinant human liver glycogen phosphorylase (Sf9 cell lysate), room temperature, 75 minutes
Parameter IC50: see the listing below.

# example entries with known answers
>>> measured("Cc1ccc(-c2nc(C)oc2CNC(=O)c2cc(NC(=O)c3cc(F)c(F)cc3Cl)[nH]n2)cc1")
"< 100 nM"
>>> measured("O=C(NCc1n[nH]c(-c2ccc(Cl)cc2)n1)c1cc(NC(=O)c2cc(F)c(F)cc2Cl)[nH]n1")
"< 100 nM"
>>> measured("Cc1cccc(-c2onc(C)c2CNC(=O)c2cc(NC(=O)c3cc(F)c(F)cc3Cl)[nH]n2)n1")
"< 100 nM"
>>> measured("CSCCc1oc(C)nc1CNC(=O)c1cc(NC(=O)c2cc(F)c(F)cc2Cl)[nH]n1")
"< 100 nM"
>>> measured("CN(C)c1ccc(-c2nnc(CNC(=O)c3cc(NC(=O)c4cc(F)c(F)cc4Cl)[nH]n3)o2)cc1")
"< 100 nM"

Input Cc1nc(COc2ccccc2)oc1CNC(=O)c1cc(NC(=O)c2cc(F)c(F)cc2Cl)[nH]n1 . Output IC50: < 100 nM

The reported IC50 of the molecule COc1cccc(-c2nc(C)oc2CNC(=O)c2cc(NC(=O)c3cc(F)c(F)cc3Cl)[nH]n2)c1 was < 100 nM

Lab note: Cc1nc(-c2cc3ccccc3s2)sc1CNC(=O)c1cc(NC(=O)c2cc(F)c(F)cc2Cl)[nH]n1 gave IC50 of < 100 nM

Documented IC50 of CCOC(=O)COCc1nc(C)c(CNC(=O)c2cc(NC(=O)c3cc(F)c(F)cc3Cl)[nH]n2)o1 : < 100 nM

Recorded IC50 (molecule Cc1nc(COCC(=O)N2CCOCC2)oc1CNC(=O)c1cc(NC(=O)c2cc(F)c(F)cc2Cl)[nH]n1 ): < 100 nM

Record O=C(NCc1sccc1OCc1ccccc1)c1cc(NC(=O)c2cc(F)c(F)cc2Cl)[nH]n1 . Reported IC50: 100 to 300 nM

----------
Recorded pIC50, one value per entry.
Target: human liver glycogen phosphorylase (Homo sapiens)
Sequence (P06737 1-847): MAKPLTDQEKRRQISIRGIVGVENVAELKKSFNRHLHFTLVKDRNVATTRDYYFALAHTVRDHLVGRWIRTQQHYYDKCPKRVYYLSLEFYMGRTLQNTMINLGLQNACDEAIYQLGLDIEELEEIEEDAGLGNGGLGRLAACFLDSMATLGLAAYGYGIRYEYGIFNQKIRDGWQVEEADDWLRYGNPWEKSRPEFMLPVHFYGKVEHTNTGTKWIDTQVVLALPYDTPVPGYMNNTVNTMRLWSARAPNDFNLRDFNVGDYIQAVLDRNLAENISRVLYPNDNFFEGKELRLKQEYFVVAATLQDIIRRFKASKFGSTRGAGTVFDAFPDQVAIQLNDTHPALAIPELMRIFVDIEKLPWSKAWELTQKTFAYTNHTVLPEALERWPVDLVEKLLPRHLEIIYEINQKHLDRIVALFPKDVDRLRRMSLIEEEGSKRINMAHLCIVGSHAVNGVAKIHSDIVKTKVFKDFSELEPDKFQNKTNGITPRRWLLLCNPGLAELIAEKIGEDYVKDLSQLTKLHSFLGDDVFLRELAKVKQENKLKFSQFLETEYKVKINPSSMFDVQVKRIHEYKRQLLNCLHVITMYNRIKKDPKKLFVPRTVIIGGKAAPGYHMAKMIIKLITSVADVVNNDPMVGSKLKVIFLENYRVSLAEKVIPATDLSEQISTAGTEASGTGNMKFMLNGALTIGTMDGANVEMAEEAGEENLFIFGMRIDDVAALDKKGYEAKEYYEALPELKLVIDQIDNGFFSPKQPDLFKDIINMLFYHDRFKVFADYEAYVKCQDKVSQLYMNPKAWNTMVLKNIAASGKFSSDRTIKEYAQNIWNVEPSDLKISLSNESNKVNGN
Test: Liver glycogen phosphorylase activity, forward reaction system (NADPH detection at 340 nm)
Conditions: enzyme inhibitory activity against recombinant human liver glycogen phosphorylase (Sf9 cell lysate), room temperature, 75 minutes
pIC50: −log10 of the molar value.

Answered cases to consult:
>>> measured("O=C(O)c1cc(CNC(=O)c2cc(NC(=O)c3cc(F)c(F)cc3Cl)[nH]n2)on1 [Example 3-3]")
"6.52 to 7.00"
>>> measured("COC(=O)c1nc(C)c(CNC(=O)c2cc(NC(=O)c3cc(F)c(F)cc3Cl)[nH]n2)o1 [Example 1-50]")
"> 7.00"
>>> measured("Cc1nc(CCc2ccccc2)c(CNC(=O)c2cc(NC(=O)c3cc(F)c(F)cc3Cl)[nH]n2)o1 [Example 1-33]")
"> 7.00"
>>> measured("Cc1nc(COCc2ccccc2)oc1CNC(=O)c1cc(NC(=O)c2cc(F)c(F)cc2Cl)[nH]n1 [Example 1-47]")
"> 7.00"
>>> measured("O=C(NCc1nnc(-c2cccc(Cl)c2)s1)c1cc(NC(=O)c2cc(F)c(F)cc2Cl)[nH]n1 [Example 1-85]")
"> 7.00"
>>> measured("Cc1nc(C(=O)N2CCCCC2)oc1CNC(=O)c1cc(NC(=O)c2cc(F)c(F)cc2Cl)[nH]n1 [Example 3-15]")
"> 7.00"

pIC50 recorded for this compound, O=C(O)Cc1nnc(CNC(=O)c2cc(NC(=O)c3cc(F)c(F)cc3Cl)[nH]n2)o1 [Example 3-19] , is 6.52 to 7.00

----------
Below, each entry is listed with its recorded pIC50.
Biological target: human liver glycogen phosphorylase (Homo sapiens)
Test: Liver glycogen phosphorylase activity, forward reaction system (NADPH detection at 340 nm)
Details: enzyme inhibitory activity against recombinant human liver glycogen phosphorylase (Sf9 cell lysate), room temperature, 75 minutes
pIC50: −log10 of the molar value. Where a name gives a salt, the structure may show the parent alone.

>>> measured("O=C(NCc1nnc(-c2ccc(C(F)(F)F)cc2)o1)c1cc(NC(=O)c2cc(F)c(F)cc2Cl)[nH]n1 [Example 1-55]")
"< 6.52"
>>> measured("Cc1nc(C(=O)O)oc1CNC(=O)c1cc(NC(=O)c2cc(F)c(F)cc2Cl)[nH]n1 [Example 3-14]")
"> 7.00"
>>> measured("CCOC(=O)c1oc(CNC(=O)c2cc(NC(=O)c3cc(F)c(F)cc3Cl)[nH]n2)nc1C [Example 1-51]")
"> 7.00"
>>> measured("Cc1nc(COC(=O)C2CCCCC2)c(CNC(=O)c2cc(NC(=O)c3cc(F)c(F)cc3Cl)[nH]n2)o1 [Example 3-23]")
"> 7.00"
>>> measured("COc1ccc(Cc2nc(CNC(=O)c3cc(NC(=O)c4cc(F)c(F)cc4Cl)[nH]n3)n[nH]2)cc1OC [Example 1-88]")
"> 7.00"
>>> measured("Cc1nc(-c2ccc(C(F)(F)F)cc2)sc1CNC(=O)c1cc(NC(=O)c2cc(F)c(F)cc2Cl)[nH]n1 [Example 1-6]")
"6.52 to 7.00"
>>> measured("Cc1cccc(-c2nc(C)oc2CNC(=O)c2cc(NC(=O)c3cc(F)c(F)cc3Cl)[nH]n2)c1 [Example 1-30]")
"> 7.00"
>>> measured("Cc1nc(C2CC2)oc1CNC(=O)c1cc(NC(=O)c2cc(F)c(F)cc2Cl)[nH]n1 [Example 1-39]")
"> 7.00"

Hey, human liver glycogen phosphorylase (Homo sapiens) data for CCc1nc(Cc2nc(C)c(CNC(=O)c3cc(NC(=O)c4cc(F)c(F)cc4Cl)[nH]n3)o2)n[nH]1 [Example 1-86, hydrochloride] : pIC50 came out at > 7.00

Short answer on human liver glycogen phosphorylase (Homo sapiens) for O=C(NCc1nnc(-c2cccc(O)c2)o1)c1cc(NC(=O)c2cc(F)c(F)cc2Cl)[nH]n1 [Example 1-57] , pIC50: > 7.00

Simply: Cc1nc(C(=O)O)sc1CNC(=O)c1cc(NC(=O)c2cc(F)c(F)cc2Cl)[nH]n1 [Example 3-2] , human liver glycogen phosphorylase (Homo sapiens), pIC50 = > 7.00

So the reported pIC50 for Cc1nc(COC(=O)c2cccs2)c(CNC(=O)c2cc(NC(=O)c3cc(F)c(F)cc3Cl)[nH]n2)o1 [Example 3-22] , on human liver glycogen phosphorylase (Homo sapiens), turned out to be > 7.00

Query Cc1nc(C(=O)OCc2ccccc2)oc1CNC(=O)c1cc(NC(=O)c2cc(F)c(F)cc2Cl)[nH]n1 [Example 3-17] on human liver glycogen phosphorylase (Homo sapiens); pIC50 returned: > 7.00
